Exercise: state measured AmyQ secretion efficiency for each of the sequences provided.
- System: Bacillus subtilis DB104 (SP-AmyQ fusion secretion)
- method.description: AmyQ secretion efficiency, weighted average sort bin (1 = best secretion, 10 = worst) (bin number (weighted average, 1-10)); higher = lower secretion efficiency
Enter a number only.

Please fill in: AmyQ secretion efficiency reported for MRKKRVITCVMAASLTLGSLLPAGYCSAKED = 3.36

Please fill in: AmyQ secretion efficiency reported for MGLGKKLSVAVAASFMSLSISLPGGQAAEG = 1.55

Please fill in: AmyQ secretion efficiency reported for MKVCQKSIVRSQRSLIIGTFVISVPFMANAQSD = 5.65

Please fill in: AmyQ secretion efficiency reported for MKRFSTAYLLLGILCSAAVFLIGAPSRALCAEV = 3.3

Please fill in: AmyQ secretion efficiency reported for MKRRRRRFILVLSFLSIIVAYPIQTNASPM = 2.07

Please fill in: AmyQ secretion efficiency reported for MKKQIITATTAVVLGSTLFAGAASMQSI = 3.83

Please fill in: AmyQ secretion efficiency reported for MKKRLIAPMLLSAASLAFFAMSGSAQIAAY = 8.39

Please fill in: AmyQ secretion efficiency reported for MKKRKRRNFKRFIAAFLVLALMISLVPADILAKST = 1.87

Please fill in: AmyQ secretion efficiency reported for MKNMSCKLVVSVTLFFSFLTIGPLAHAKRK = 2.49

Please fill in: AmyQ secretion efficiency reported for MLKKKWMVGLLAGCLAAGFFGYNAFATEN = 6.85

Please fill in: AmyQ secretion efficiency reported for MKRFSTAYLLLGILCSAAVFLIGAPSRALGARR = 7.6

Please fill in: AmyQ secretion efficiency reported for MSGTIFFGPIILAFILFAGAIAIPS = 6.8

Please fill in: AmyQ secretion efficiency reported for MPYLKRVLLLLVTGLFMSLFAVTATLSAQTG = 1.38

Please fill in: AmyQ secretion efficiency reported for MRMLWRSLALCGLALTLAPCAQIAEP = 6.42

Please fill in: AmyQ secretion efficiency reported for MKKRLIGFLVLVPALIMSGITLREANKK = 7.02

Please fill in: AmyQ secretion efficiency reported for MKKIWIGMLAAAVLLLTKPKESLADAA = 3.56

Please fill in: AmyQ secretion efficiency reported for MKQGKFSVFLILLLMLTLVVTIFAALVIAPKEKAEAASS = 3.57

Please fill in: AmyQ secretion efficiency reported for MLCVMMLLFSAIASFPVSMQAKDQ = 5.6

Please fill in: AmyQ secretion efficiency reported for MNKPTKLFILLALAALMFAAAAGGAGTIHAQQP = 1.87

Please fill in: AmyQ secretion efficiency reported for MKKWMAGLFLAAAVLLCLMVPQQSQGASS = 5.65

Please fill in: AmyQ secretion efficiency reported for MLKRTSFVSSSSLFISSAVLLSILLPSGQAHAQSA = 1.71

Please fill in: AmyQ secretion efficiency reported for MRPVFPLILSAVLFLSCFFGARQTEASWSKR = 4.13

Please fill in: AmyQ secretion efficiency reported for MAIIIAIIAAVIVIAALITFNVRNHSPG = 6.69

Please fill in: AmyQ secretion efficiency reported for MKNMSCKLVVSVTLFFSFLTIGPLAHFQNS = 5.82

Please fill in: AmyQ secretion efficiency reported for MRKNRIKRKKVLSLGLLSFMVTPVSAASK = 7.91

Please fill in: AmyQ secretion efficiency reported for MRSKKLWISLLFALTLIFVMAFGNMTAQAAGK = 1.9

Please fill in: AmyQ secretion efficiency reported for MGMLFKIIGWILLLCIIPLFAFTVIASGKEV = 2.66

Please fill in: AmyQ secretion efficiency reported for MKSCKQLIVCSLAAILLLIPSVSFAADD = 2.66
